system: SNB-19 CNS; assay: NCI-60 one-dose screen, 48 h (100 = growth as untreated, 0 = no growth, -100 = all killed); conditions: 10 µM unless noted
This is part of a sample that, as a whole, favours compounds with a hit. Of some 83,000 tested, about 20% had one in any assay. Activity calls are given as the source filed them. How the source made its calls: active means growth percent below 10; inactive means the rest.
EXPERIMENTAL_READOUT: growth

Consider the worked cases shown below.
>  <COMPOUND>
Cc1ccc2sc3c(NCCCN)nc4ccccc4c3c(=O)c2c1

>  <EXPERIMENTAL_READOUT>
growth

>  <VAL>
74.6% (inactive)

$$$$
>  <COMPOUND>
CCOC(=O)Cn1c(C)c(/C=N/NC(=O)c2cc3c(ccc4ccccc43)o2)c2ccccc21

>  <EXPERIMENTAL_READOUT>
growth

>  <VAL>
18% (inactive)

$$$$
>  <COMPOUND>
Cc1cc(O)c(C2=NN(c3ccc(S(N)(=O)=O)cc3)C(c3ccccc3O)C2)cc1Cl (stereo not given)

>  <EXPERIMENTAL_READOUT>
growth

>  <VAL>
65.4% (inactive)

$$$$
>  <COMPOUND>
COc1ccc2sc3c(NCCCN(C)C)nc4ccccc4c3c(=O)c2c1

>  <EXPERIMENTAL_READOUT>
growth

>  <VAL>
71.4% (inactive)

$$$$

Now for another entry.
Please report the recorded growth for O=[N+]([O-])c1ccccc1NCSc1ccc(Cl)cc1 . 103% (inactive)

* * *

Reported values of growth for individual entries
tested on: NCI-H460 lung; experiment: NCI-60 one-dose screen, 48 h (100 = growth as untreated, 0 = no growth, -100 = all killed); settings: 10 µM unless noted
This is part of a sample that, as a whole, favours compounds with a hit. Of some 83,000 tested, about 20% had one in any assay.
Respond with the bare value in %.

Consider the worked cases shown below.
>  <COMPOUND>
CCCCn1c(-c2ccc(-c3nc(-c4ccc(Cl)cc4)no3)cc2)nc(-c2ccccc2)c1-c1ccccc1

>  <SYSTEM>
NCI-H460 lung

>  <EXPERIMENTAL_READOUT>
growth

>  <VAL>
95.6

$$$$
>  <COMPOUND>
Clc1ccc2c(c1)N(CCCN1CCCC1)c1ccccc1S2

>  <SYSTEM>
NCI-H460 lung

>  <EXPERIMENTAL_READOUT>
growth

>  <VAL>
30

$$$$
>  <COMPOUND>
Cc1oc2nc[nH]c(=O)c2c1C(=O)/C=C/c1ccc(Br)cc1

>  <SYSTEM>
NCI-H460 lung

>  <EXPERIMENTAL_READOUT>
growth

>  <VAL>
3.92

$$$$
>  <COMPOUND>
Cc1nn(-c2ccccc2)c2c1N=c1s/c(=C\c3ccc(C(F)(F)F)cc3)c(=O)n1CN2

>  <SYSTEM>
NCI-H460 lung

>  <EXPERIMENTAL_READOUT>
growth

>  <VAL>
53.8

$$$$

Please report the recorded growth for COc1cc2cc(Oc3ccc(NC(=O)Nc4ccc(F)c(C(F)(F)F)c4)cc3)c(C)nc2cc1OCCN1CCOCC1 . 7.19

Please report the recorded growth for COc1ccc(C(=O)n2nc(-c3ccccc3)nc2N)cc1OC . 98.3

Please report the recorded growth for O=C1CCC/C=C\C[C@H]2C=CC(=O)/C2=C/C[C@H](CCc2cccc(C(F)(F)F)c2)O1 . -24.6

Please report the recorded growth for CCCCn1c(=O)c(-c2cc(-c3ccc(Cl)cc3)nc(-c3ccc(Cl)cc3)c2)cc2cc(Cl)ccc21 . 108

Please report the recorded growth for O=C(N/N=C/c1c(Cl)cccc1Cl)c1ccc(C(F)(F)F)nc1Nc1cccc(C(F)(F)F)c1 . 7.11

Please report the recorded growth for O=C(Nc1ccc(Cl)cc1F)c1cc(Cl)ccc1O . -5.39

Please report the recorded growth for N#Cc1c(Nc2cccc(Cl)c2)sc(C(=O)c2cc3cc(Cl)ccc3o2)c1N . 46.7

Please report the recorded growth for NCCCNc1nc2ccccc2c2c(=O)c3cc(F)cc(F)c3sc12 . -75.1

Please report the recorded growth for COc1ccc2c(c1)c(-c1nn3cc(-c4cccs4)nc3s1)cn2C . 68.7

Please report the recorded growth for Cc1ccc(-c2nc3c(c(-c4ccccc4)nn3-c3ccccc3)c(-c3ccc(O)cc3)c2C#N)cc1 . 27.4

Please report the recorded growth for O=S(=O)(Nc1ccc(-c2nc(-c3cccc(OCCN4CCOCC4)c3)c(-c3ccnc(Br)c3)[nH]2)cc1)c1ccccc1 . 28.4
